TGT: human CB2 receptors (Homo sapiens (Human))
MEASUREMENT DESCRIPTION: cAMP assay, CHO cells expressing human CB2 receptors
Format: cell-based
ENDPOINT NAME: EC50

- ENTRY SMILES: "c1c(-c2noc(C3CC3)n2)ncc(C2CC2)c1OCC1CC1"
  REPORTED: "15.8 nM"
- ENTRY SMILES: "CC(C)(C)c1nc(-c2cc(OCC(F)(F)F)c(C3CC3)cn2)no1"
  REPORTED: "6.9 nM"

###

Listed molecules paired with reported pEC50
TGT: human CB2 receptors (Homo sapiens (Human), UniProt P34972)
Sequence (P34972 whole entry): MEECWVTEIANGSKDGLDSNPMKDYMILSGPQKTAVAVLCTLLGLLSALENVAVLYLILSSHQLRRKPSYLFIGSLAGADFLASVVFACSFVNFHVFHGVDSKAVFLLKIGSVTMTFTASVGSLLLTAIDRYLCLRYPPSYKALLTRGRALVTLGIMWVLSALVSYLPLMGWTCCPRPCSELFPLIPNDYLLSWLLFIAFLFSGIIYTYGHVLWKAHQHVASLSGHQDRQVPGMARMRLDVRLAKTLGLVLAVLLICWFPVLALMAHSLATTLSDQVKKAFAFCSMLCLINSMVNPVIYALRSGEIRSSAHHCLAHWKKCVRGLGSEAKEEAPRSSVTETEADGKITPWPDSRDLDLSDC
MEASUREMENT DESCRIPTION: cAMP assay, CHO cells expressing human CB2 receptors
Assay type: cell-based
SETUP CONDITIONS: functional cAMP assay, CHO cells expressing human CB2; read-out: EC50 CB2 human
pEC50: −log10 of the molar value.
ENDPOINT NAME: pEC50

- MOLECULE: "CC1(COc2cc(-c3noc(C(C)(C)C)n3)ncc2C2CC2)COC1"
  REPORTED: 8.11
- MOLECULE: "CC(C)(C)c1nc(-c2cc(N3CCCC3)c(C3CC3)cn2)no1"
  REPORTED: 8.05
- MOLECULE: "CC(C)(C)c1nc(-c2cc(OCC(F)F)c(C3CC3)cn2)no1"
  REPORTED: 8.70
- MOLECULE: "c1c(C2=NC3(CCCCC3)CO2)ncc(C2CC2)c1OCC1CC1"
  REPORTED: 8.38
- MOLECULE: "CC(C)(C)c1c[nH]c(-c2cc(OCC(F)(F)F)c(N3CC(F)(F)C3)cn2)n1"
  REPORTED: 7.06
- MOLECULE: "FC(F)(F)COc1cc(-c2noc(C3CC3)n2)ncc1Cl"
  REPORTED: 6.55
- MOLECULE: "CC(C)(C)c1nc(-c2cc(N3CCC(F)(F)C3)c(C3CC3)cn2)no1"
  REPORTED: 8.68
- MOLECULE: "CC(C)(C)c1nc(-c2cc(OC3COC3)c(C3CC3)cn2)no1"
  REPORTED: 7.48
- MOLECULE: "CC(C)(C)c1nc(-c2cc(OCC3CCO3)c(C3CC3)cn2)no1 (stereo not shown)"
  REPORTED: 7.81
- MOLECULE: "CCC1(CC)COC(c2cc(OCC(F)(F)F)c(C3CC3)cn2)=N1"
  REPORTED: 8.46
- MOLECULE: "CC(C)(C)c1nc(-c2cc(OCC3CC3)c(N3CCC34COC4)cn2)no1"
  REPORTED: 7.48
- MOLECULE: "CC(C)(C)c1nc(-c2cc(OCCN3CCCCC3)c(C3CC3)cn2)no1"
  REPORTED: 7.58
- MOLECULE: "CC(C)(C)c1nc(-c2cc(OCC3COC3)c(C3CC3)cn2)no1"
  REPORTED: 7.93
